System: primary human T-cells
Assay: Proliferation assay after 5 days (CellTiter-Glo, CD3 stimulation; PBS counter screen)
Format: cell-based
Conditions: Homo sapiens, T-cell, 120 h, primary human T-cells, CD3 stimulation, CellTiter-Glo after 5 days; EC50 of fitted sigmoidal curve; read-out: Tcell Proliferation CD3 EC50
Method: Compounds are then added (see next section) to medium only plates. Cells are assessed for proliferation 5 days later by measuring […] using CellTiterGlo (Promega). After 5 days, for detection of ATP which is directly proportional to the number of cells present per well, the CellTiter-Glo® 2.0 Reagent is used. […] Luminescence is measured with PHERAstar FSX (interval time 0.5 sec, gain 3000, focal height 15 mm) and exported as CSV file for analysis in Genedata screener. […]
List of EC50 values.
The reply should be a number in nM, with the unit left off.

In the examples that follow, each entry is paired with its recorded EC50.
Cc1cc2c(cc1-c1nnc(C3CN(C)CC(F)(F)C3)o1)N(Cc1ccc(Cl)cc1)C(=O)[C@@H](N)CS2(=O)=O (stereo partly shown) ... 4270
CS(=O)(=O)N1CCC2CC2(c2nnc(-c3cc4c(cc3F)S(=O)(=O)C[C@H](N)C(=O)N4Cc3ccc(Cl)cc3)o2)C1 (stereo partly shown) ... 1580
CC(C)(C)c1nnc(-c2cc3c(cc2F)S(=O)(=O)C[C@H](N)C(=O)N3Cc2ccc(Cl)cc2)o1 ... 48.8

Please turn your attention to the following entry.
Ask: // lookup EC50 for CC1(C)CNCC(c2nc(-c3cc4c(cc3F)S(=O)(=O)C[C@H](N)C(=O)N4Cc3ccc(Cl)cc3)no2)C1 (stereo partly shown)
Result: 990

###

tested on: primary human T-cells
pEC50: −log10 of the molar value.
pEC50 of 6 or higher: fulfilled. Under 6: not fulfilled.

Here are 5 molecules together with their reported answers.
Cc1ccc(-c2nnc(-c3ccc4c(c3)N(Cc3ccc(Cl)cc3)C(=O)[C@@H](N)CS4(=O)=O)o2)cn1 ... not fulfilled
N[C@H]1CS(=O)(=O)c2cc(F)c(-c3nnc(NC45CC(F)(C4)C5)o3)cc2N(Cc2ccc(Cl)cc2)C1=O ... not fulfilled
COC(=O)N1CC2CC(c3nc(-c4cc5c(cc4F)[S+]([O-])C[C@H](N)C(=O)N5Cc4ccc(OC(F)(F)F)cc4)no3)(C2)C1 (stereo partly shown) [Example 337] ... not fulfilled
C#CCC(C)(C)c1nnc(-c2cc3c(cc2F)S(=O)(=O)C[C@H](N)C(=O)N3Cc2ccc(C3(C(F)(F)F)N=N3)cc2)o1 ... fulfilled
CC(C)(C)c1nnc(-c2cc3c(cc2F)S(=O)(=O)C[C@H](N)C(=O)N3Cc2ccc(OC3CCCC3)cc2)o1 ... fulfilled

Ask: Decide: pEC50 of N[C@H]1CS(=O)(=O)c2cc(F)c(-c3nnc(C4(CO)CC4)o3)cc2N(Cc2ccc(Cl)cc2)C1=O >= 6?
Result: not fulfilled

###

system: primary human T-cells; assay: Proliferation assay after 5 days (CellTiter-Glo, CD3 stimulation; PBS counter screen); type: cell-based; conditions: Homo sapiens, T-cell, 120 h, primary human T-cells, CD3 stimulation, CellTiter-Glo after 5 days; EC50 of fitted sigmoidal curve; read-out: Tcell Proliferation CD3 EC50
List of pEC50 values.
Note: pEC50 values are expressed as the negative base-10 logarithm of concentration in M.

In the examples that follow, each entry is paired with its recorded pEC50.
COc1ccc(CN2C(=O)[C@@H](N)CS(=O)(=O)c3cc(F)c(-c4nnc(C(C)(C)C)o4)cc32)cn1 [Example 225] ... 5.72
CC(C)(C)c1nnc(-c2cc3c(cc2F)S(=O)(=O)C[C@H](N)C(=O)N3Cc2ccc(Cl)nc2)o1 [Example 237] ... 5.89
N[C@H]1CS(=O)(=O)c2cc(F)c(-c3nnc(NC4CCC(F)(F)CC4)o3)cc2N(Cc2ccc(Cl)cc2)C1=O [Example 458] ... 6.31
CC(C)(C)c1nnc(-c2ccc3c(c2)N(Cc2ccc(N4CCN(C5CC5)CC4)cc2)C(=O)[C@@H](N)CS3(=O)=O)o1 [Example 445] ... 5.37

Ask: // fetch primary human T-cells pEC50 for COC(=O)N1CCC(c2nnc(-c3ccc4c(c3)N(Cc3ccc(OC5CCCC5)cc3)C(=O)[C@@H](N)CS4(=O)=O)o2)C1 (stereo partly shown) [Example 444]
Result: 5.62
